Measured values drawn from the RNAGym collection of RNA variant scans (doi:10.1073/pnas.2313332121) for this set.

B1: TPR t1 (parent)
chain: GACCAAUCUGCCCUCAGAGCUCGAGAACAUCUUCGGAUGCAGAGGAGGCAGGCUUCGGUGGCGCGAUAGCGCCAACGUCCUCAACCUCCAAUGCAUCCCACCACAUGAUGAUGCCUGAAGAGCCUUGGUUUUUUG

- Variants of: B1
- ASSAY NOTES: polymerase ribozyme fitness, log enrichment relative to wild type (log ratio); higher = more active; in vitro selection for triplet polymerase activity
Please mark criterion met if the recorded polymerase ribozyme fitness (log ratio) is equal to or greater than -4, and criterion not met if it falls below.

1. C72A U131C :: criterion met
2. G17U A43G G57U :: criterion not met
3. A43G U87G :: criterion met
4. G19U C72G U78A :: criterion not met
5. G44A C49G U55G C85U U106G G107C C115G :: criterion not met
6. C12A G71U A91C :: criterion met
7. U7A C72U U92C :: criterion met
8. C72U U109A :: criterion not met
9. G42U G45A G110C :: criterion not met
10. A50U A84G A111C :: criterion not met
11. G69C U96G U106C :: criterion met
